system: Glutamate receptor ionotropic, NMDA 3A (GRIN3A) ligand-binding domain; assay: binders of NR3A ligand-binding domain, primary screen, biophysical, differential scanning fluorimetry, uHTS (AID 1259313); conditions: NR3A LBD differential scanning fluorimetry, at 25 µM, 0% = protein alone, 100% = glycine-bound protein
Screen size: about 340,000 compounds; about 8,500 (2.5%) were called active.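 Rule for the calls: active = melting temperature shift of at least 10% of the positive control shift, at one fixed dose; inactive = the rest.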 Shown is part of a subset that was picked to be rich in actives.
Outcome codes: class 1 for active, class 0 for inactive

1. CC(=O)NC(=S)Nc1ccc(NC(=O)c2cccnc2)cc1; class 0
2. CCCOC(=O)c1ccc(N2C(=O)c3ccccc3C2=O)cc1; class 0
3. CC(=O)Nc1ccc(S(=O)(=O)NC(C)C(=O)OCC(=O)NC2CCCC2)cc1 (stereo unspecified); class 0
4. COc1ccc(NC(=O)Nc2ccc3nsnc3c2)cc1; class 1
5. Cc1nc(/N=C(\N)NC(=O)NC2CCCCC2)nc2ccccc12; class 0
6. Cc1ccc(-n2nc3cc(C)c(NC(=O)c4cccnc4)cc3n2)cc1; class 0
7. Cc1ccc(NC(=O)Nc2ccc3oc(C)nc3c2)cc1; class 0
8. Cc1ccccc1-n1nnc2c(=O)oc3ccccc3c21; class 0
9. CC(=O)Nc1ccc(S(=O)(=O)NC(C)C(=O)OCCOc2ccc(F)cc2)cc1 (stereo unspecified); class 1
10. Cc1ccc2nc(-c3ccc(NC(=O)c4cccnc4)cc3)oc2c1; class 1
11. Cc1ccc(CC2C(=O)N(c3ccc(F)cc3)C(=O)C2C)cc1 (stereo unspecified); class 0

----------
tested on: Glutamate receptor ionotropic, NMDA 3A (GRIN3A) ligand-binding domain; assay: binders of NR3A ligand-binding domain, primary screen, biophysical, differential scanning fluorimetry, uHTS (AID 1259313); settings: NR3A LBD differential scanning fluorimetry, at 25 µM, hits give high values, 0% = protein alone, 100% = glycine-bound protein
Screen size: about 340,000 compounds; about 8,500 (2.5%) were called active. The sample as a whole holds a higher share of actives than the screen did.
List of Tm shift relative to glycine control values.
measuredQuantity: Tm shift relative to glycine control (%)

1. C(=N\Nc1ccc2ccccc2n1)/c1ccc2c(c1)OCO2; -7.73
2. Cc1ccc(Nc2c(O)nc[nH]c2=O)cc1C; -3.98
3. COc1ccc(CCNC(=O)CCc2ccccc2O)cc1OC; 19.5
4. COc1ccc([C@H]2CC(=O)C=C(/C=C/c3ccc(Cl)cc3)C2)cc1; 25.2
5. O=C(CCN1C(=O)C2C3C=CC(C3)C2C1=O)Oc1ccc2ccccc2c1 (stereo not drawn); -2.31
6. COc1ccc(/C=C/c2nnc(NC(=O)C(C)C)s2)cc1; 6.05
7. O=C1COc2ccc(NC(=O)N3CCN(c4ccc(F)cc4)CC3)cc2N1; -1.31
8. O=C(CSc1ccccc1)Nc1nnc(/C=C/c2ccccc2)s1; -4.65
9. COc1ccccc1N(CC(=O)Nc1c(C)n(C)n(-c2ccccc2)c1=O)S(=O)(=O)c1ccccc1; -1.61
10. COC(=O)c1ccccc1SC1CC(=O)N(c2cccc(C)c2)C1=O (stereo not drawn); -2.37
11. O=C(CSc1nnc(-c2ccncc2)o1)NCc1ccc(Cl)cc1; 1.65
12. Cc1ccc(-c2cc(C(=O)N/N=C/C=C/c3ccccc3)n[nH]2)o1; 19.9
13. COc1ccc(C(=O)Nc2cccc(S(C)(=O)=O)c2)cc1; 4.52
14. O=C(Nc1ccc(Cl)cc1)Nc1nnc(/C=C/c2ccccc2)s1; 10.2
15. Fc1c(F)c(C(F)(F)F)c(F)c(F)c1N1CCN(c2ccc3nnc(C(F)(F)F)n3n2)CC1; 33.4
16. CC(C)=CCc1c(O)c(CC=C(C)C)c2occ(-c3ccc(O)cc3)c(=O)c2c1O; 31.4
17. CCOc1ccc(NC(=O)CCS(=O)(=O)c2ccc3c(c2)CCCN3C(=O)CC)cc1; -2.2
18. COCCn1nnnc1C(c1ccccc1Cl)N1CCN(c2ccccc2OC)CC1 (stereo not drawn); 2.04
19. CNC(=O)c1nnn(-c2ccccc2)c1C(=O)NC; 4.23
20. COc1ccc(S(=O)(=O)N2CCN(C(=O)N(C)C)C2C)cc1 (stereo not drawn); -2.39
21. CN(C)/C=C(/C(=O)c1ccc(Cl)c(Cl)c1)c1nnnn1-c1ccccc1; -0.1
22. COc1ccc(CN2CC(C(=O)NCCc3ccc(Cl)cc3)CC2=O)cc1 (stereo not drawn); -2.13
23. CCCCCN(C(=O)NC(=O)Nc1ccccc1C)S(C)(=O)=O; -1.26
24. Cc1ccc(O/C=C2\OC(=O)c3ccccc32)cc1; 49.4
25. Cc1ccc(C(=O)COC(=O)CCN2C(=O)C3C4CC(C(Br)C4Br)C3C2=O)cc1 (stereo not drawn); 18
26. O=C(Nc1cccc(-c2nc3ccccc3[nH]2)c1)c1ccc(C(=O)Nc2cccc(-c3nc4ccccc4[nH]3)c2)cc1; 27.9
27. FC(F)(F)c1nnc2ccc(N3CCN(c4ccccc4)CC3)nn12; -3.49
28. CN(c1ccccc1)S(=O)(=O)c1cc(C(=O)Nc2nc3ccccc3[nH]2)ccc1Cl; -0.62
29. CCCCC/C=C/C1=CC(=O)C[C@H](c2ccc(Cl)cc2)C1; -2.27
30. N#Cc1c(N)n(CCOC(=O)c2ccc(Cl)cc2)c2nc3ccccc3nc12; 35.9
31. COc1ccc(CCNC(=O)CSCc2ccc(Br)cc2)cc1OC; 0.53
32. O=C(/C=C/c1ccco1)Nc1ccc(Oc2ccccc2)cc1; 2.36
33. O=C(/C=C/Sc1ncn[nH]1)c1ccc(Cl)cc1; -1.06
34. CC(=O)c1ccc(NC(=O)CCNS(=O)(=O)c2cc(Br)cnc2N)cc1; -12.8
35. CN(C)CCCn1c(N)c(C#N)c2nc(C#N)c(C#N)nc21; -3.53
36. CSc1nc(N(C)NC(=O)c2cccc(C)c2)c2ccccc2n1; 3.17
37. CC(C)Oc1ccc(/C=C(\NC(=O)/C=C/c2ccco2)C(=O)NCCc2nc3ccccc3[nH]2)cc1; -0.09
38. COc1ccc(/C=C/CN2CCCC(C(=O)c3cc(F)ccc3F)C2)cc1 (stereo not drawn); -1.5
39. Cc1ccc(Oc2cnn(-c3ccccc3)c(=O)c2Br)cc1; -1.23
40. O=c1ccn([C@@H]2O[C@H](CNS(=O)(=O)c3cc4ccccc4s3)[C@@H](O)[C@H]2O)c(=O)[nH]1; -1.03
41. CCC(=O)N(C)C(c1ccccc1Cl)c1nnnn1-c1c(C)cccc1C (stereo not drawn); 38.2
42. COCC(C)OC(=O)c1c(N)n(CCCN2CCOCC2)c2nc3ccccc3nc12 (stereo not drawn); -0.69
43. Cc1ccc(-n2nc3ccc(NC(=O)/C=C/c4ccco4)cc3n2)cc1C; 32.1
